test system: 415267-285-R-J2-PDC complex spheroid viability; assay: Anticancer human tumor 415267-285-R-J2-PDC patient-derived breast carcinoma cell line growth inhibition [POLQ]; conditions: second compound 1 µM; first compound 10 µM; active = viability on the fitted dose curve at most 10% of control; inactive = the rest
In this exercise, the only acceptable responses are active, inactive

Field: example entries. Status: answers known.
{"Compound": "C#Cc1c(F)ccc2cc(O)cc(-c3ncc4c(N5CC6CCC(C5)N6)nc(OCC56CCCN5CC(F)C6)nc4c3F)c12 (stereo not given) + COC1C(OC(N)=O)C(O)C(Oc2ccc3c(O)c(NC(=O)c4ccc(O)c(CC=C(C)C)c4)c(=O)oc3c2C)OC1(C)C", "Label": "inactive"}
{"Compound": "CCc1cc2c(N3CCc4c(cc(Cn5ccnc5)cc4-c4cn(C)nc4C(F)(F)F)C3=O)ccnc2c(OC)n1 + Nc1ccc(C#CCN(C(=O)Cc2ncc(C(F)(F)F)cc2C(F)(F)F)c2ccc(F)cc2)nn1", "Label": "inactive"}
{"Compound": "CCc1cc2c(N3CCc4c(cc(Cn5ccnc5)cc4-c4cn(C)nc4C(F)(F)F)C3=O)ccnc2c(OC)n1 + COC1C(OC(N)=O)C(O)C(Oc2ccc3c(O)c(NC(=O)c4ccc(O)c(CC=C(C)C)c4)c(=O)oc3c2C)OC1(C)C", "Label": "inactive"}
{"Compound": "COc1cc2cc(C(=O)CCC(=O)O)sc2cc1OC + COC1C(OC(N)=O)C(O)C(Oc2ccc3c(O)c(NC(=O)c4ccc(O)c(CC=C(C)C)c4)c(=O)oc3c2C)OC1(C)C", "Label": "inactive"}

Alright, here's another compound for you.
Recorded call for COc1cc(C2c3cc4c(cc3C(OC3OC5COC(C)OC5C(O)C3O)C3COC(=O)C23)OCO4)cc(OC)c1O (stereo not given) + Nc1ccc(C#CCN(C(=O)Cc2ncc(C(F)(F)F)cc2C(F)(F)F)c2ccc(F)cc2)nn1 ?
active

---

System: 415267-285-R-J2-PDC complex spheroid viability
Test: Anticancer human tumor 415267-285-R-J2-PDC cell line growth inhibition [POLQ];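 also: luminescence used as stand-in measure of viable cells; spheroids exposed to compounds for one week before readout; 100% = DMSO vehicle control viability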
Conditions: second compound 3.16 µM; first compound 10 µM; hits give low values
Experimental: Multicellular complex tumor spheroid response to Polymerase (POL) inhibitors (novobiocin, ART-558, RP6685) in combination with a variety of drugs and investigational agents in selected tumor cell lines The POL inhibitors (novobiocin, ART-558, and RP6685) were evaluated both individually and in combination with standard of care and investigational anticancer small molecules within a complex spheroid model of solid tumors. . […]
Label y when viability, T/C < 80%; otherwise n.

Field: example entries. Status: answers known.
{"Molecule": "COc1cc(C2c3cc4c(cc3C(OC3OC5COC(C)OC5C(O)C3O)C3COC(=O)C23)OCO4)cc(OC)c1O (stereo unspecified) + Nc1ccc(C#CCN(C(=O)Cc2ncc(C(F)(F)F)cc2C(F)(F)F)c2ccc(F)cc2)nn1", "Label": "y"}
{"Molecule": "COc1cccc2c1C(=O)c1c(O)c3c(c(O)c1C2=O)CC(O)(C(=O)CO)CC3OC1CC(N)C(O)C(C)O1 (stereo unspecified) + Nc1ccc(C#CCN(C(=O)Cc2ncc(C(F)(F)F)cc2C(F)(F)F)c2ccc(F)cc2)nn1", "Label": "y"}
{"Molecule": "C=CC(=O)N1CCN(c2nc(=O)n(-c3c(C)ccnc3C(C)C)c3nc(-c4c(O)cccc4F)c(F)cc23)C(C)C1 (stereo unspecified) + Cc1cccc(N(C)C(=O)C2C(O)CCN2c2nc(C)cc(C(F)(F)F)c2C#N)c1", "Label": "n"}
{"Molecule": "CNCc1ccc(-c2[nH]c3cc(F)cc4c3c2CCNC4=O)cc1 + Nc1ccc(C#CCN(C(=O)Cc2ncc(C(F)(F)F)cc2C(F)(F)F)c2ccc(F)cc2)nn1", "Label": "n"}
{"Molecule": "C#Cc1c(F)ccc2cc(O)cc(-c3ncc4c(N5CC6CCC(C5)N6)nc(OCC56CCCN5CC(F)C6)nc4c3F)c12 (stereo unspecified) + Cc1cccc(N(C)C(=O)C2C(O)CCN2c2nc(C)cc(C(F)(F)F)c2C#N)c1", "Label": "n"}
{"Molecule": "CC1COCCN1c1cc(C2(S(C)(=N)=O)CC2)nc(-c2ccnc3[nH]ccc23)n1 (stereo unspecified) + Nc1ccc(C#CCN(C(=O)Cc2ncc(C(F)(F)F)cc2C(F)(F)F)c2ccc(F)cc2)nn1", "Label": "y"}

Alright, here's another molecule for you.
Quick check: viability, T/C of COc1cc2cc(C(=O)CCC(=O)O)sc2cc1OC + Nc1ccc(C#CCN(C(=O)Cc2ncc(C(F)(F)F)cc2C(F)(F)F)c2ccc(F)cc2)nn1 under 80%?
n

---

test system: 415267-285-R-J2-PDC complex spheroid viability; test: Anticancer human tumor 415267-285-R-J2-PDC cell line growth inhibition [POLQ]; details: second compound 10 µM; first compound 0.0316 µM; hits give low values;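 also: luminescence used as stand-in measure of viable cells; spheroids exposed to compounds for one week before readout; 100% = DMSO vehicle control viability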
Label fulfilled when viability, T/C < 80%; otherwise not fulfilled.

{"Compound": "COc1ccc([C@@H](O)c2cc(-c3ncnc4cc(N5CCOCC5)ccc34)c(F)cc2Cl)nn1 + Cc1cccc(N(C)C(=O)C2C(O)CCN2c2nc(C)cc(C(F)(F)F)c2C#N)c1", "Label": "not fulfilled"}
{"Compound": "CCc1cc2c(N3CCc4c(cc(Cn5ccnc5)cc4-c4cn(C)nc4C(F)(F)F)C3=O)cc(C)nc2c(OC)n1 + COC1C(OC(N)=O)C(O)C(Oc2ccc3c(O)c(NC(=O)c4ccc(O)c(CC=C(C)C)c4)c(=O)oc3c2C)OC1(C)C", "Label": "not fulfilled"}

Quick check: viability, T/C of COc1cccc2c1C(=O)c1c(O)c3c(c(O)c1C2=O)CC(O)(C(=O)CO)CC3OC1CC(N)C(O)C(C)O1 (stereo not given) + Nc1ccc(C#CCN(C(=O)Cc2ncc(C(F)(F)F)cc2C(F)(F)F)c2ccc(F)cc2)nn1 under 80%?
fulfilled

Another compound: CC1COCCN1c1cc(C2(S(C)(=N)=O)CC2)nc(-c2ccnc3[nH]ccc23)n1 (stereo not given) + Nc1ccc(C#CCN(C(=O)Cc2ncc(C(F)(F)F)cc2C(F)(F)F)c2ccc(F)cc2)nn1
not fulfilled

Another compound: CC1COCCN1c1cc(C2(O)CC3CCC(C2)O3)c2cnn(-c3ccn[nH]3)c2n1 (stereo not given) + Cc1cccc(N(C)C(=O)C2C(O)CCN2c2nc(C)cc(C(F)(F)F)c2C#N)c1
fulfilled

---

The following compounds are shown together with reported viability, T/C values.
System: 415267-285-R-J2-PDC complex spheroid viability
Test: Anticancer human tumor 415267-285-R-J2-PDC cell line growth inhibition [POLQ];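 also: luminescence used as stand-in measure of viable cells; spheroids exposed to compounds for one week before readout; 100% = DMSO vehicle control viability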
Details: second compound 3.16 µM; first compound 3.16 µM; hits give low values
Experimental: Multicellular complex tumor spheroid response to Polymerase (POL) inhibitors (novobiocin, ART-558, RP6685) in combination with a variety of drugs and investigational agents in selected tumor cell lines The POL inhibitors (novobiocin, ART-558, and RP6685) were evaluated both individually and in combination with standard of care and investigational anticancer small molecules within a complex spheroid model of solid tumors. . […]
# unit: % | format: bare number

Example results:
{"Compound": "Nc1ccn(C2OC(CO)C(O)C2(F)F)c(=O)n1 (stereo not given) + Cc1cccc(N(C)C(=O)C2C(O)CCN2c2nc(C)cc(C(F)(F)F)c2C#N)c1", "viability, T/C, %": 5.53}
{"Compound": "C=CC(=O)N1CCN(c2nc(=O)n(-c3c(C)ccnc3C(C)C)c3nc(-c4c(O)cccc4F)c(F)cc23)C(C)C1 (stereo not given) + Nc1ccc(C#CCN(C(=O)Cc2ncc(C(F)(F)F)cc2C(F)(F)F)c2ccc(F)cc2)nn1", "viability, T/C, %": 99.1}
{"Compound": "COc1cccc2c1C(=O)c1c(O)c3c(c(O)c1C2=O)CC(O)(C(=O)CO)CC3OC1CC(N)C(O)C(C)O1 (stereo not given) + COC1C(OC(N)=O)C(O)C(Oc2ccc3c(O)c(NC(=O)c4ccc(O)c(CC=C(C)C)c4)c(=O)oc3c2C)OC1(C)C", "viability, T/C, %": 1.25}
{"Compound": "O=C(c1cc(Cc2n[nH]c(=O)c3ccccc23)ccc1F)N1CCN(C(=O)C2CC2)CC1 + COC1C(OC(N)=O)C(O)C(Oc2ccc3c(O)c(NC(=O)c4ccc(O)c(CC=C(C)C)c4)c(=O)oc3c2C)OC1(C)C", "viability, T/C, %": 98.3}

Here is the next item to consider.
Data request, read-out viability, T/C, for COc1cccc2c1C(=O)c1c(O)c3c(c(O)c1C2=O)CC(O)(C(=O)CO)CC3OC1CC(N)C(O)C(C)O1 (stereo not given) + Nc1ccc(C#CCN(C(=O)Cc2ncc(C(F)(F)F)cc2C(F)(F)F)c2ccc(F)cc2)nn1
1.16

---

test system: 415267-285-R-J2-PDC complex spheroid viability; assay: Anticancer human tumor 415267-285-R-J2-PDC cell line growth inhibition [POLQ]; settings: second compound 0.1 µM; first compound 1 µM; active = viability on the fitted dose curve at most 10% of control; inactive = the rest;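 also: luminescence used as stand-in measure of viable cells; spheroids exposed to compounds for one week before readout; 100% = DMSO vehicle control viability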
In this exercise, the only acceptable responses are active, inactive

Field: example entries. Status: answers known.
{"Molecule": "CC1COCCN1c1cc(-c2ccnn2C)c2ccnc(-c3ccn[nH]3)c2n1 (stereo unspecified) + COC1C(OC(N)=O)C(O)C(Oc2ccc3c(O)c(NC(=O)c4ccc(O)c(CC=C(C)C)c4)c(=O)oc3c2C)OC1(C)C", "Label": "active"}
{"Molecule": "CCc1cc2c(N3CCc4c(cc(Cn5ccnc5)cc4-c4cn(C)nc4C(F)(F)F)C3=O)ccnc2c(OC)n1 + Cc1cccc(N(C)C(=O)C2C(O)CCN2c2nc(C)cc(C(F)(F)F)c2C#N)c1", "Label": "inactive"}
{"Molecule": "C=CC(=O)N1CCN(c2nc(=O)n(-c3c(C)ccnc3C(C)C)c3nc(-c4c(O)cccc4F)c(F)cc23)C(C)C1 (stereo unspecified) + Cc1cccc(N(C)C(=O)C2C(O)CCN2c2nc(C)cc(C(F)(F)F)c2C#N)c1", "Label": "inactive"}
{"Molecule": "COc1cc2cc(C(=O)CCC(=O)O)sc2cc1OC + COC1C(OC(N)=O)C(O)C(Oc2ccc3c(O)c(NC(=O)c4ccc(O)c(CC=C(C)C)c4)c(=O)oc3c2C)OC1(C)C", "Label": "inactive"}
{"Molecule": "Nc1ccn(C2OC(CO)C(O)C2(F)F)c(=O)n1 (stereo unspecified) + Cc1cccc(N(C)C(=O)C2C(O)CCN2c2nc(C)cc(C(F)(F)F)c2C#N)c1", "Label": "active"}

Alright, here's another molecule for you.
Recorded call for COc1cc(C2c3cc4c(cc3C(OC3OC5COC(C)OC5C(O)C3O)C3COC(=O)C23)OCO4)cc(OC)c1O (stereo unspecified) + COC1C(OC(N)=O)C(O)C(Oc2ccc3c(O)c(NC(=O)c4ccc(O)c(CC=C(C)C)c4)c(=O)oc3c2C)OC1(C)C ?
active
